- Test system: NLK;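 further: KINOMEscan kinase panel screen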
- measurement.parameters: concentration: 1 μM, replicates: in singlicate; n = 1
reported.metric: %Inh (%)
Answers are plain numbers, in %.

• OCCOCCn1ccc2ncnc(Nc3ccc(Oc4cccc(Cl)c4)c(Cl)c3)c21 = 0

Go through the list and state %Inh for each entry.
1. O=C(Nc1ccccc1)Nc1ccc(Oc2ccc3nccn3n2)cc1
2. CNc1nccc(-c2c(-c3ccc(F)cc3)ncn2CCCN2CCOCC2)n1

Reply:
1: 2; 2: 0

Go through the list and state %Inh for each entry.
1. COc1ccc(-c2oc3ncnc(N)c3c2-c2ccc(OC)cc2)cc1
2. CSc1ccc(NC2=C(c3ccccc3Cl)C(=O)NC2=O)cc1

Reply:
1. 4
2. 56

Go through the list and state %Inh for each entry.
1. CC(C)(C)OC(=O)NC1CCCN(c2cc(-c3ccc4c(N)n[nH]c4c3)nc(N)n2)C1 (stereo not drawn)
2. COc1ccc(Nc2nccc(N3CCC(NC(=O)c4cccc(NC(C)=O)c4)C3)n2)cc1 (stereo not drawn)
3. O=C(NCCCN1CCCC1=O)c1cnc(NCc2cc(Cl)ccc2Cl)nc1NC1CCNCC1
4. CS(=O)(=O)CCNCc1nc(-c2ccc3ncnc(Nc4ccc(OCc5cccc(F)c5)c(Cl)c4)c3c2)cs1.Cl

Reply:
27
12
2
0
